- experimental-target: T1, bacterially produced human IL-6 (human, UniProt P05231 30-212)
- T1 construct: also called bactIL-6; prokaryotic IL-6
- assay-procedure: SPR; periplasmic fraction; ratio bact to euk IL-6
Give ratio bact/euk for every item shown.

Worked set:
binder | reported-metric | observed-result
Fab 24A3 (Fab, V domains shown, Fab; also called 28f10(24A3)) VH: QVQVQESGGGLVQPGGSLRLSCAASGFTFSNYAMSWVRQAPGKGLEWVSGISFRGGMISYVDSVKGRFTISRDNAKNTLYLQMNSLKPEDTAVYYCAKNSGSSRSNALDAWGQGTLVTVSS VL: LNFMLTQPPSVSGSPGQKFTIRCTGSFRSDSYVNWYQQLPGTAPKLLINYDDRRVSGVPSRFSGSKSGNSASLTIDGLQAEDEAEYYCSFWDHTFGGHVFGGGTKLTVLG | ratio bact/euk | 1.2
Fab 24D10 (Fab, V domains shown, Fab; also called pur24d10; 28f12(24D10)) VH: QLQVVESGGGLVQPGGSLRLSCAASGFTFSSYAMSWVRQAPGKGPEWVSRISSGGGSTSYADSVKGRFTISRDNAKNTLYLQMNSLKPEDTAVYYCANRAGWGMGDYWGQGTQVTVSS VL: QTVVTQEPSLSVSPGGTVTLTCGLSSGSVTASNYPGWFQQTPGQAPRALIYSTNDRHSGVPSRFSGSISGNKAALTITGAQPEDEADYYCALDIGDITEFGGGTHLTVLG | ratio bact/euk | 1.09
Fab 28B6 (Fab, V domains shown, Fab; also called 28f3(28B6)) VH: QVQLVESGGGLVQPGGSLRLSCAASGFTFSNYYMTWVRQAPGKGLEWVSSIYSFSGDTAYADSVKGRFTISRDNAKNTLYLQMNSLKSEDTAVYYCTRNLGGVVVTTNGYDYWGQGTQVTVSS VL: DIQLTQSPSSLSASLGDRVTITCQASQSISTELSWYQQKPGQTPKLLIYGASRLQTGVPARFSGSGSGTSFTLTISGLEAEDLATYYCLQDYSWPYSFGSGTRL | ratio bact/euk | 1

-- ask Requested read-out: ratio bact/euk. Entry: Fab 24G3 (Fab, V domains shown, Fab; also called 28g12(24G3)) VH: QLQVVESGGGLVQPGSSLRLSCGASGFTFSSHRMYWVRQPPGKGLEWVSAISSSGVSTYYADSVKGRFTISRDNAKNTVYLQMNSLKPEDTALYYCKRRTWYGGEYDYWGQGTQVTVSS VL: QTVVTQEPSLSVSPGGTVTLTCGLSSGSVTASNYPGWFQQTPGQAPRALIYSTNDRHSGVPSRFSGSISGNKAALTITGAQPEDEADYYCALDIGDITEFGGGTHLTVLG
-- reply 0.96
